Below is a list of entries, each paired with its recorded EC50 value.
Target system: human Maxi K channel (BK channel), KCNMA1 (KCa1.1) and beta1 (KCNMB1) subunits (Homo sapiens, UniProt Q12791)
Sequence (Q12791 1-1178 isoform Q12791-5): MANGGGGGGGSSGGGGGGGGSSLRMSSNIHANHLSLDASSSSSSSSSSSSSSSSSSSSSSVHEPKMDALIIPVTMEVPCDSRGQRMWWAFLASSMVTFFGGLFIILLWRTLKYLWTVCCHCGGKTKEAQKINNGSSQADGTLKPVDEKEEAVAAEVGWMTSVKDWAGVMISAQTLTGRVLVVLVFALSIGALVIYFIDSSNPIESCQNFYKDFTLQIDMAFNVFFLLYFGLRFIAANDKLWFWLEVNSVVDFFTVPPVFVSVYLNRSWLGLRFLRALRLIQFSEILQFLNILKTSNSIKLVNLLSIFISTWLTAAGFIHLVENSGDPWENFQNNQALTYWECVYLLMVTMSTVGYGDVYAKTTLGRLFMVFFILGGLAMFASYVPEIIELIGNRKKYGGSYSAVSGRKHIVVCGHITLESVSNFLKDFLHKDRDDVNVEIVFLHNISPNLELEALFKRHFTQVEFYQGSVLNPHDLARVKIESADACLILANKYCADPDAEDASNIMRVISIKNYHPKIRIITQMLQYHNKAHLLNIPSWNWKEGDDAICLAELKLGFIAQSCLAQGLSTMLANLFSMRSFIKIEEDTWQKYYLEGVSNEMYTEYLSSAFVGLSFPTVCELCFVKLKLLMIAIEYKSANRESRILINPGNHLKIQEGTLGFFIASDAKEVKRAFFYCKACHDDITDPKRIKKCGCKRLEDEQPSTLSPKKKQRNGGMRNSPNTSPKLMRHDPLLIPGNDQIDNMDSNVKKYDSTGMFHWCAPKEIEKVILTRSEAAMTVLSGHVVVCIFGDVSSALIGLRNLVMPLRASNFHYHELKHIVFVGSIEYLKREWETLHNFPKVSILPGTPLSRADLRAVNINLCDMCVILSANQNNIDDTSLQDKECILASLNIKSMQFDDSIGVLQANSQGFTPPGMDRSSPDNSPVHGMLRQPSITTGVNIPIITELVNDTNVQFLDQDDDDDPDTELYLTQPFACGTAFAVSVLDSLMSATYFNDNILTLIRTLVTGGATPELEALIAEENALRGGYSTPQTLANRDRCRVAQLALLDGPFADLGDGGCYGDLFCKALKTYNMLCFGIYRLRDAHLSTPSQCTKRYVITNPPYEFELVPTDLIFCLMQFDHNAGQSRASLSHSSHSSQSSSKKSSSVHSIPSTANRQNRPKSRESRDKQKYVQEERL
Sequence (Q16558 whole entry partner): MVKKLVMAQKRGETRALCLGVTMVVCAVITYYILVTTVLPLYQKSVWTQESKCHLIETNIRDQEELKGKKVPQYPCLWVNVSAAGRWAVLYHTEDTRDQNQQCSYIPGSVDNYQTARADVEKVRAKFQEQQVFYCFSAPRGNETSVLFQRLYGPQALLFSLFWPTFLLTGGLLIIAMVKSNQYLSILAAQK
Protocol details: Agonistic activity at the human Maxi K channel (BK channel), membrane potential (FLIPR) in transfected CHO K1 cells
Applied conditions: membrane potential dye, 70 mM KCl
Readout label: EC50

{"Compound": "Cc1cccc(CC(=O)Nc2cnc3c(-c4cccc(Cl)c4Cl)cccc3c2N(C)C)c1", "Experimental value": "> 30 µM"}
{"Compound": "O=C(Nc1cnc2c(-c3cc(Cl)cc(Cl)c3)cccc2c1N1CCOCC1)c1cccc2ccccc12", "Experimental value": "10 to 30 µM"}
{"Compound": "CN(C)c1c(NC(=O)[C@H]2CCc3ccccc32)cnc2c(-c3cc(Cl)cc(Cl)c3)c(Cl)ccc12", "Experimental value": "> 30 µM"}
{"Compound": "CCc1c(NC(=O)C2CCOc3ccccc32)cnc2c(-c3cccc(Cl)c3Cl)cccc12 (stereo not shown)", "Experimental value": "> 30 µM"}
{"Compound": "Cc1ccc2c(N(C)C)c(NC(=O)[C@H]3CCCc4ccccc43)cnc2c1-c1cccc(Cl)c1Cl", "Experimental value": "10 to 30 µM"}
{"Compound": "CCOc1c(NC(=O)C2CCc3ccccc32)cnc2c(-c3cc(Cl)cc(Cl)c3)c(F)ccc12 (stereo not shown)", "Experimental value": "> 30 µM"}
{"Compound": "Cc1ccc2c(N(C)C)c(NC(=O)[C@H]3CCc4ccccc43)cnc2c1-c1cc(Cl)cc(Cl)c1", "Experimental value": "> 30 µM"}

====

Target system: human Maxi K channel (BK channel), KCNMA1 (KCa1.1) and beta1 (KCNMB1) subunits (Homo sapiens, UniProt Q12791)
Protocol details: Agonistic activity at the human Maxi K channel (BK channel), membrane potential (FLIPR) in transfected CHO K1 cells
Applied conditions: membrane potential dye, 70 mM KCl
Below is a list of entries, each paired with its recorded EC50 value.
Readout label: EC50

{"Compound": "CC(C)Oc1c(NC(=O)C2CCOc3ccccc32)cnc2c(-c3cc(Cl)cc(Cl)c3)cccc12 (centres unmarked)", "Experimental value": "> 30 µM"}
{"Compound": "CCN(C)c1c(NC(=O)C2CCCc3ccccc32)cnc2c(-c3cccc(Cl)c3Cl)cccc12 (centres unmarked)", "Experimental value": "> 30 µM"}
{"Compound": "COc1c(NC(=O)C(C)c2ccccc2)cnc2c(-c3cccc(Cl)c3Cl)cccc12 (centres unmarked)", "Experimental value": "> 30 µM"}
{"Compound": "CC(C(=O)Nc1cnc2c(-c3cccc(Cl)c3Cl)cccc2c1N(C)C)c1ccccc1 (centres unmarked)", "Experimental value": "> 30 µM"}
{"Compound": "COc1c(NC(=O)c2cccc3ccccc23)cnc2c(-c3cccc(Cl)c3Cl)cccc12", "Experimental value": "> 30 µM"}
{"Compound": "O=C(Nc1cnc2c(-c3cc(Cl)cc(Cl)c3)c(Cl)ccc2c1N1CCOCC1)C1CCOc2ccccc21 (centres unmarked)", "Experimental value": "> 30 µM"}
{"Compound": "CCN(C(=O)C1CCOc2ccccc21)c1cnc2c(-c3cccc(Cl)c3Cl)cccc2c1N1CCOCC1 (centres unmarked)", "Experimental value": "> 30 µM"}
{"Compound": "O=C(Cc1ccccc1)Nc1cnc2c(-c3cc(Cl)cc(Cl)c3)cccc2c1N1CCOCC1", "Experimental value": "> 30 µM"}
